PROTOCOL SUMMARY: Cytotoxicity against human fibroblast cells by alamar blue assay
Format: cell-based
Quick reference: IC50 of the listed items.

COc1ccc(/C=C\c2cc(OC)c(OC)c(OC)c2)cc1O : > 100 µM
COc1ccc(-c2cnnn2-c2cc(OC)c(OC)c(OC)c2)c(F)c1F : > 100 µM
COc1ccc(/C=C\c2cc(OC)c(OC)c(OC)c2)c(O)c1O : > 100 µM
COc1cc(-n2nncc2-c2ccc3c(c2O)OC(C)(C)O3)cc(OC)c1OC : > 100 µM

Query block: Consider the compound shown here: COc1cc(-n2nncc2-c2ccc(OC)c([N+](=O)[O-])c2[N+](=O)[O-])cc(OC)c1OC What is its recorded IC50?
Result block: 31.5 µM

* * *

Quick reference: IC50 of the listed items.
EXPERIMENTAL SYSTEM: Tubulin (Sus scrofa, UniProt P02554+P02550)
PROTOCOL SUMMARY: Inhibition of porcine brain tubulin polymerization after 60 mins
Form entry: value (µM) — number only.

COc1ccc(-c2cnnn2-c2cc(OC)c(OC)c(OC)c2)c(F)c1F : 15.6
COc1ccc(/C=C\c2cc(OC)c(OC)c(OC)c2)c(O)c1O [COMBRETASTATIN A-1] : 3.5
COc1ccc(-c2cnnn2-c2cc(OC)c(OC)c(OC)c2)c(O)c1O : 10.1
COc1ccc(-c2cnnn2-c2cc(OC)c(OC)c(OC)c2)c(N)c1N : 5.2

Consider the record given below.
Query block: Consider the molecule shown here: COc1cc(-n2nncc2-c2ccc3c(c2O)OCO3)cc(OC)c1OC What is its recorded IC50?
Result block: 17.1

* * *

Quick reference: IC50 of the listed items.
EXPERIMENTAL SYSTEM: Tubulin (Sus scrofa, UniProt P02554+P02550)
PROTOCOL SUMMARY: Inhibition of porcine brain tubulin polymerization after 60 mins

COc1cc(-n2nncc2-c2ccc(OC)c([N+](=O)[O-])c2[N+](=O)[O-])cc(OC)c1OC : > 20 µM
COc1ccc(-n2nncc2-c2cc(OC)c(OC)c(OC)c2)c(O)c1O : > 20 µM

Consider the record given below.
Query block: Consider the compound shown here: COc1cc(-n2nncc2-c2ccc3c(c2O)OC(C)(C)O3)cc(OC)c1OC What is its recorded IC50?
Result block: > 20 µM
